- target_under_test: recombinant human mGluR4a receptors (Homo sapiens)
- Sequence (Q14833 33-912): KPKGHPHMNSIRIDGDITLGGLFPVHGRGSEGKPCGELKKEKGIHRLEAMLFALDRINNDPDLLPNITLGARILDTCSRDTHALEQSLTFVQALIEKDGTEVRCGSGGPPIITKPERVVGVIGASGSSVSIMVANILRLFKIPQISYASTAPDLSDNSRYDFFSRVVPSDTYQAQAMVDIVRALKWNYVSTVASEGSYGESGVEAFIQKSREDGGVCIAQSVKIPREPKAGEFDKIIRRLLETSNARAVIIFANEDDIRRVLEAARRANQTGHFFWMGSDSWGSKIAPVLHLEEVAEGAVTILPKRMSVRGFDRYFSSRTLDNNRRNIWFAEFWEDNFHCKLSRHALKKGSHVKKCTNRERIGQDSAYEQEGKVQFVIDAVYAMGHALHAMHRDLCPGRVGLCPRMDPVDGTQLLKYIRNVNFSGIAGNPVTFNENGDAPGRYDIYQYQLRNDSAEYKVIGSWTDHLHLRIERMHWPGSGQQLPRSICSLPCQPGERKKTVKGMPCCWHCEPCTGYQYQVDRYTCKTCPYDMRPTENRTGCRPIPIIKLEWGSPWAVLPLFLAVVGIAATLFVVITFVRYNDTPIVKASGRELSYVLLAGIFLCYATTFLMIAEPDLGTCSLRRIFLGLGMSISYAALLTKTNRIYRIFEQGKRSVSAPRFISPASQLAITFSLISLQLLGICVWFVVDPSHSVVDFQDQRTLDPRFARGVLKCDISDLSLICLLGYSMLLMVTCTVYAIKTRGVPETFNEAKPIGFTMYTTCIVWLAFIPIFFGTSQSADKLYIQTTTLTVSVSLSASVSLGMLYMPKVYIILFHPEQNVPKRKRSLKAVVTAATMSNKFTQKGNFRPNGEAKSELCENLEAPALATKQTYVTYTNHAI
- procedure_text: mGluR4 assay on HEK-expressing human mGluR4 (fluorescent cell based Ca2+ mobilization assay, FLIPR)
- measurement_setup: HEK-293 cells expressing hmGluR4; enhancement of EC25 glutamate response; mean of at least three independent experiments in duplicate; read-out: Ca^2+ Flux (mean EC50)
pEC50: −log10 of the molar value.
pEC50 listing for selected compounds.

Field: example entries. Status: answers known.
compound	pEC50
Cc1ccnc(Nc2nc(-c3c[nH]nc3-c3cccc(N4CCC(O)C4)c3)cs2)n1 (stereo not shown) [Compound 1-42]	6.00 to 7.00
COC(=O)N1CC=C(c2n[nH]cc2-c2csc(Nc3nccc(C)n3)n2)C1 [Compound 1-39]	6.00 to 7.00
CC(=O)c1sc(Nc2nccc(C)n2)nc1-c1cn[nH]c1 [Compound 1-46]	6.00 to 7.00

Kindly review the next compound as well.
Lookup: Report pEC50 for Cc1ccnc(Nc2nc(-c3c[nH]nc3-c3cccc4c3CNC4=O)cs2)n1 [Compound 1-7] please.
Found: 5.00 to 6.00
